assay: Cellular growth of U1 cells; assay type: cell-based; details: human, all concentrations of neomycin (0-2.5 mM), read-out: cellular growth, of the untreated control

{"Compound": "NC[C@@H]1O[C@H](O[C@H]2[C@@H](O)[C@H](O[C@@H]3[C@@H](O)[C@H](N)C[C@H](N)[C@H]3O[C@H]3O[C@H](CN)[C@@H](O)[C@H](O)[C@H]3N)O[C@@H]2CO)[C@H](N)[C@@H](O)[C@@H]1O [neomycin B]", "activity": "94 to 108%"}

---

system: Rev protein binding to RRE RNA probe (high affinity Rev-binding site); parameters: species or system HIV; conditions: 67-nt 32P-labeled RNA probe, any concentration tested
Test readout: inhibitory on Rev binding at any concentration tested

{"Molecule": "CN(C)C1C(=O)C(C(N)=O)=C(O)C2(O)C(=O)C3=C(O)c4c(O)cccc4C(C)(O)C3CC12 (stereo not shown)", "Experimental system": "Rev protein binding to RRE RNA probe (high affinity Rev-binding site)", "Result": "no"}

---

molecular target: HIV Rev protein binding to HIV RRE (69-nt RNA probe) (Human immunodeficiency virus type 1 group M subtype B)
Sequence (P04618 whole entry, looked up): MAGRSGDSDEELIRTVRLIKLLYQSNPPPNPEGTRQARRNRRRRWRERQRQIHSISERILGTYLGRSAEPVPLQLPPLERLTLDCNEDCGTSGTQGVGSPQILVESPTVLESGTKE

{"Molecule": "CN(C)CCCNC(=N)c1ccc(-c2ccc(-c3ccc(C(=N)NCCCN(C)C)cc3)o2)cc1 [Compound 7a]", "IC50": "1.19 µM"}

Source of measurements: patent US5935776A
